# systemUnderTest: mouse STING protein (139-328) (Mus musculus, UniProt Q3TBT3)
# Sequence (Q3TBT3 139-328): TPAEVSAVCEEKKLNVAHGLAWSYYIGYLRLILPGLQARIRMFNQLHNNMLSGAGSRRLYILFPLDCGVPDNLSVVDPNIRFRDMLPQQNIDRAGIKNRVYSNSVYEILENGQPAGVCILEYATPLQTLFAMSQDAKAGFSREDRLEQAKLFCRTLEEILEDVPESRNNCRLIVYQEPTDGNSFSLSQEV
# protocolSummary: Radiometric filtration binding competition assay (FBA), mSTING
Reported IC50 values follow for various compounds

O=C(O)Cn1c2ccccc2c(=O)c2ccc(Cl)c(-c3cccs3)c21 20 to 100 µM

Then there is this compound:
// query IC50 value for entry `Cc1ccc2c(=O)c3ccc(Cl)c(N4CCCC4)c3n(CC(=O)O)c2c1`
20 to 100 µM

====

# systemUnderTest: hSTING-R232 (aa140-379) (Homo sapiens, UniProt Q86WV6, H232R)
# Sequence (Q86WV6 140-379 H232R): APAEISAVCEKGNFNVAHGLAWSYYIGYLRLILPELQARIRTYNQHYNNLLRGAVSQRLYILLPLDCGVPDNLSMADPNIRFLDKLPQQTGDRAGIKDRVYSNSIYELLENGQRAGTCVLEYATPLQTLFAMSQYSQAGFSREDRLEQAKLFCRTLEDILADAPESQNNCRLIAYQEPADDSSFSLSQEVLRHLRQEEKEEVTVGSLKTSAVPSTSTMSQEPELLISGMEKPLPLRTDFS
# protocolSummary: STING differential scanning fluorimetry (DSF) assay, hSTING WT
# testConditions: shift in melting temperature apo vs ligand-bound
resultType: WT_DSF_hSWAT Tm Shift (° C.)

// worked examples, WT_DSF_hSWAT Tm Shift (° C.) included
CCc1ccc2c(=O)c3ccc(Cl)c(N(C)C)c3n(CC(=O)O)c2c1 D (“D” >7° C.)
CN(C)c1c(Cl)ccc2c(=O)c3ccc(C4CC4)cc3n(CC(=O)O)c12 D (“D” >7° C.)
Cc1ccccc1-c1c(Cl)ccc2c(=O)c3ccccc3n(CC(=O)O)c12 B (“B” = 0-2° C.)
C=Cc1cc2c(cc1Cl)c(=O)c1ccc(Cl)c(N(C)C)c1n2CC(=O)O D (“D” >7° C.)
Cc1ccc2c(=O)c3ccc(Cl)c(N(C)C)c3n(CC(=O)NS(=O)(=O)C3CC3)c2c1 D (“D” >7° C.)

Give WT_DSF_hSWAT Tm Shift (° C.) (hSTING-R232 (aa140-379) (Homo sapiens, UniProt Q86WV6, H232R)) of the following compound: `CN(C)c1c(Cl)ccc2c(=O)c3ccc(-c4cnccn4)cc3n(CC(=O)O)c12`
C (“C” = 2-7° C.)

Reported WT_DSF_hSWAT Tm Shift (° C.) for hSTING-R232 (aa140-379) (Homo sapiens, UniProt Q86WV6, H232R), given `COc1c(Cl)ccc2c(=O)c3ccc(Br)cc3n(CC(=O)O)c12` ?
C (“C” = 2-7° C.)

Report WT_DSF_hSWAT Tm Shift (° C.) for `COc1c(Cl)ccc2c(=O)c3ccc(C4CCN(C)CC4)cc3n(CC(=O)O)c12` tested on hSTING-R232 (aa140-379) (Homo sapiens, UniProt Q86WV6, H232R).
C (“C” = 2-7° C.)

What reported WT_DSF_hSWAT Tm Shift (° C.) corresponds to `CN(C)c1c(Cl)ccc2c(=O)c3ccc(-n4ccnc4)cc3n(CC(=O)O)c12` on hSTING-R232 (aa140-379) (Homo sapiens, UniProt Q86WV6, H232R)?
C (“C” = 2-7° C.)

====

# systemUnderTest: human STING protein (140-379), WT (Homo sapiens, UniProt Q86WV6, H232R)
# Sequence (Q86WV6 140-379 H232R): as above
# protocolSummary: Radiometric filtration binding competition assay (FBA), hSTING-WT
# testConditions: WT-hSWAT IC50 (μM), WT_FBA_HIS-SUMO-hSWAT; wild-type human STING; competition with [H3] 2′3′cGAMP
Catalogue of IC50 readings, one per entry.

These recorded examples may help you get a feel for the data.
molecule	IC50
CN(C)c1c(Cl)ccc2c1N(CC(=O)O)c1cc(Nc3ccccc3F)ccc1N2C [Compound 78]	< 20 µM
CN(C)c1c(Cl)ccc2c(=O)c3cc(Br)ccc3n(CC(=O)O)c12 [Compound 29]	> 300 µM
CN(C)c1c(Cl)ccc2c(=O)c3ccc(C(C)(C)C)cc3n(CC(=O)NS(=O)(=O)C3CC3)c12 [Compound 42]	< 20 µM

Dear colleague, I am looking for the recorded IC50 of the following molecule: COc1c(Cl)ccc2c(=O)c3ccc(C4=CCN(C(=O)OC(C)(C)C)C4)cc3n(CC(=O)O)c12 [Compound 41]
20 to 100 µM

IC50 for Cc1ccc2c(=O)c3ccc(Cl)c(N(C)C)c3n(CC(=O)NS(=O)(=O)C3CC3)c2c1 [Compound 44] ?
20 to 100 µM

// lookup IC50 for CC(C)Nc1cc2c(cc1Cl)c(=O)c1ccc(Cl)c(N(C)C)c1n2CC(=O)O [Compound 86]
< 20 µM
